Where do these numbers come from? They come from BindingDB's records for patent WO2022093820.

Tested on: Phosphatidylinositol 3-kinase catalytic subunit type 3 (Homo sapiens, UniProt Q8NEB9)
Sequence (Q8NEB9 whole entry): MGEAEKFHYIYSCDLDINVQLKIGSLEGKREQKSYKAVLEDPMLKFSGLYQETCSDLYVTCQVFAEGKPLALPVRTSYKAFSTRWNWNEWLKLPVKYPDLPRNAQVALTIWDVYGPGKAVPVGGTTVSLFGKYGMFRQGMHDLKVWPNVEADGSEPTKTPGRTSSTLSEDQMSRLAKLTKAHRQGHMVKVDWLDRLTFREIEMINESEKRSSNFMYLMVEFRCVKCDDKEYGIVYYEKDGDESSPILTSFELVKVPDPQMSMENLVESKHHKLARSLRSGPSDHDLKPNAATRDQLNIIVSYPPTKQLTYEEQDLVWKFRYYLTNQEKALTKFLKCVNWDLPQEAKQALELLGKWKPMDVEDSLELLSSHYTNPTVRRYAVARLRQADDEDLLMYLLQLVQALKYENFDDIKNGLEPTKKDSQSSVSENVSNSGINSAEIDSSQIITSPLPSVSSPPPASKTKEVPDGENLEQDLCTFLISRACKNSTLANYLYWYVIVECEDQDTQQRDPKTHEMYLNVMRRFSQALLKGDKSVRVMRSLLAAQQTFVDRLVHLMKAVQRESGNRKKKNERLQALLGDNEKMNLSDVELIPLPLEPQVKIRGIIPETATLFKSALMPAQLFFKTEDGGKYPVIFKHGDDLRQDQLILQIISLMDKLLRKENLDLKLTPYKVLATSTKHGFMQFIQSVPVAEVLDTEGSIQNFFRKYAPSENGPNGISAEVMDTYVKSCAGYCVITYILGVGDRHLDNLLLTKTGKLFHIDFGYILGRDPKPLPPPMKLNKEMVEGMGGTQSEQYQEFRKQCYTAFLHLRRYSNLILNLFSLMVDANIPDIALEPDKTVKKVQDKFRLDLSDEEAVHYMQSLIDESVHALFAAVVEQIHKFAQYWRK
Assay procedure: VPS34 ADP-Glo kinase assay
Value kind: IC50 (µM)

C[C@@H]1COCCN1c1cc2n(n1)[C@@H](CC(F)(F)F)CNC2=O    0.429
C[C@@H]1COCCN1c1cc2n(n1)[C@H](C1(c3ccccc3)CC1)CNC2=O    0.1
C[C@@H]1COCCN1c1cc2n(n1)[C@](C)(C1CC1)CNC2=O    0.041

P = CC[C@@H](C)C[C@H]1CNC(=O)c2cc(N3CCOC[C@H]3C)nn21
Q = CC[C@H](C)C[C@@H]1CNC(=O)c2cc(N3CCOC[C@H]3C)nn21
R = C[C@@H]1COCCN1c1cc2n(n1)[C@@H]1CCC(C)(C)[C@@H]1NC2=O
S = C[C@@H]1COCCN1c1cc2n(n1)[C@](C)(C1CC1)C1(CC1)NC2=O
Order field: IC50 | Direction: descending (largest first) In plain terms: list the labels in the order you were asked to.
P, Q, R, S

I = CC(C)[C@]1(C)CNC(=O)c2cc(N3CCOC[C@H]3C)nn21
II = CC(C)C[C@H]1CNC(=O)c2cc(N3CCOC[C@H]3C)nn21
Of I and II , which shows the smaller IC50 value? Answer by stating the label of the chosen item.
I
(I: 0.09 µM, II: 0.739 µM)
